# credit: ChEMBL document CHEMBL1132544

Quick list: IC50 per entry.
- Tested on: A498
- ASSAY REMARKS: Cytotoxicity against A 498 tumor cell line
- Type: functional
- MEASUREMENT PARAMETERS: Homo sapiens, read-out: ID50 (the source's name)
// return numeric value only (unit: µg/mL, not printed)

COc1cccc2c1C(=O)c1c(O)c3c(c(O)c1C2=O)C[C@@](O)(C(C)=O)C[C@@H]3O[C@H]1C[C@H](N)[C@H](O)[C@H](C)O1
0.487
COc1cccc2c1C(=O)c1c(O)c3c(c(O)c1C2=O)C[C@@](O)(C(C)=O)C[C@@H]3OC1CC(NC(=O)OCc2ccc(NC(=O)[C@H](CCCCN)NC(=O)[C@H](Cc3ccccc3)NC(=O)[C@@H](C)N)cc2)C(O)C(C)O1.Cl.Cl (some centres undefined)
1.16
COc1cccc2c1C(=O)c1c(O)c3c(c(O)c1C2=O)C[C@@](O)(C(=O)CO)C[C@@H]3OC1CC(NC(=O)OCc2ccc(NC(=O)[C@H](CCCCN)NC(=O)[C@H](Cc3ccccc3)NC(=O)[C@@H](C)N)cc2)C(O)C(C)O1.Cl.Cl (some centres undefined)
0.473

Asked: Return reported IC50. Input molecule: COc1cccc2c1C(=O)c1c(O)c3c(c(O)c1C2=O)C[C@@](O)(C(=O)CO)C[C@@H]3O[C@H]1C[C@H](N)[C@H](O)[C@H](C)O1
Given back: 0.09
